Biological target: WT hSLACK (Homo sapiens, UniProt Q5JUK3)
Construct: host or cells: CHO-K1
Sequence (Q5JUK3 1-1235 isoform Q5JUK3-3): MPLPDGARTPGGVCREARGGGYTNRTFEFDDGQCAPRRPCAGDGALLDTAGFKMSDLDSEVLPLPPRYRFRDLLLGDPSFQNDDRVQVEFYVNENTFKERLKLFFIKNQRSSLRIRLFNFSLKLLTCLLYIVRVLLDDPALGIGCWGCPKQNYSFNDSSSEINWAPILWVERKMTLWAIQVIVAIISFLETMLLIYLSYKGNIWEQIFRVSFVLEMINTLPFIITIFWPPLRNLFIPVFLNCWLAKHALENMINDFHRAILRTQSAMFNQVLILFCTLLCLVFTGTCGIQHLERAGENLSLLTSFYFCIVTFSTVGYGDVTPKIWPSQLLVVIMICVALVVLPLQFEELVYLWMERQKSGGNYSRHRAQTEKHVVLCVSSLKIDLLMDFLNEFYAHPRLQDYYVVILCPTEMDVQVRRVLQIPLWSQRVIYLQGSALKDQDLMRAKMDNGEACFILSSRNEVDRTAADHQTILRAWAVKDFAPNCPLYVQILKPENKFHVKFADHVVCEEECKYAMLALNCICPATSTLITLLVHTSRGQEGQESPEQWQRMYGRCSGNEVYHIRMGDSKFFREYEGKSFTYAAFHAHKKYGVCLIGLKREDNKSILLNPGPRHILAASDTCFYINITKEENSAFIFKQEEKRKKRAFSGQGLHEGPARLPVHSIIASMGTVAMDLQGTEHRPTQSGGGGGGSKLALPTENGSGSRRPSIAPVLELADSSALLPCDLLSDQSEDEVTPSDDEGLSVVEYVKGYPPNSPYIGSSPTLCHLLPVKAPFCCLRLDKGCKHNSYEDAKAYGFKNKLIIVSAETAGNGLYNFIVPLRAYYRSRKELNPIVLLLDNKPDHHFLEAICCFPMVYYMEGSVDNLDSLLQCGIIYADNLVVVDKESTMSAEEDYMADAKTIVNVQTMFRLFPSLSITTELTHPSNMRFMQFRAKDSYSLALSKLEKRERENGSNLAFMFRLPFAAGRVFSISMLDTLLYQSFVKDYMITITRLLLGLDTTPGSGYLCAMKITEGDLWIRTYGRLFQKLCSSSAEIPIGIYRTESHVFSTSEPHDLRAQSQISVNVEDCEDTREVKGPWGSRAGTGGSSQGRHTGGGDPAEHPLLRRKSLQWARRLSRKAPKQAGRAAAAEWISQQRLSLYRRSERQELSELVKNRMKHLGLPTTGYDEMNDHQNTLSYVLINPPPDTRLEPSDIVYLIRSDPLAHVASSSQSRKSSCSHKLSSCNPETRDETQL
Experiment: Whole-cell automated patch-clamp (APC) in CHO cells stably expressing WT hSLACK
Format: cell-based
Conditions: whole-cell APC, CHO cells stably expressing WT hSLACK, averages n ≥ 3; read-out: SLACK IC50
readoutKind: pIC50
The read-out pIC50 is expressed as -log10 of concentration in moles per litre.

CN(Cc1ccccc1)c1nc2c(c(=O)n(Cc3ccccc3)c(=O)n2C)n1C [Analog 8] : 5.77
CC(C)N(Cc1ccccc1)c1nc2c(c(=O)n(Cc3ccccc3)c(=O)n2C)n1C [Analog 69] : 5.47
CN(Cc1ccccc1)c1nc2c(c(=O)n(Cc3ccc(F)cc3)c(=O)n2C)n1C [Analog 18] : 5.89

Input COc1ccc(CN(C)c2nc3c(c(=O)n(Cc4ccccc4)c(=O)n3C)n2C)cc1 [Analog 61] , output reported pIC50.
5.62

Input CN(Cc1ccccc1F)c1nc2c(c(=O)n(Cc3ccccc3)c(=O)n2C)n1C [Analog 47] , output reported pIC50.
5.57

Input COc1ccccc1CN(C)c1nc2c(c(=O)n(Cc3ccccc3)c(=O)n2C)n1C [Analog 59] , output reported pIC50.
5.33

----------
Entries and their IC50 values follow.
Target: WT hSLACK (Homo sapiens, UniProt Q5JUK3)
Construct: host or cells: CHO-K1
Assay: Whole-cell automated patch-clamp (APC) in CHO cells stably expressing WT hSLACK
Assay type: cell-based
Conditions: whole-cell APC, CHO cells stably expressing WT hSLACK, averages n ≥ 3; read-out: SLACK IC50
Please reply with the bare figure in nM and do not write the unit itself.

CN(Cc1ccccc1)c1nc2c(c(=O)n(Cc3ccc(Cl)cc3)c(=O)n2C)n1C : 2600
COc1cccc(Cn2c(=O)c3c(nc(N(Cc4ccc(F)cc4)CC4CC4)n3C)n(C)c2=O)c1 : 1500
Cn1c(N2CCc3ccccc3C2)nc2c1c(=O)n(Cc1ccccc1)c(=O)n2C : 2800
CN(Cc1ccccc1)c1nc2c(c(=O)n(Cc3ccccc3F)c(=O)n2C)n1C : 1800
Cn1c(CCc2ccccc2)nc2c1c(=O)n(Cc1ccccc1)c(=O)n2C : 7000
CN(Cc1ccccc1)c1nc2c(c(=O)n(Cc3cccc(C#N)c3)c(=O)n2C)n1C : 2400
Cc1ccccc1Cn1c(=O)c2c(nc(N(C)Cc3ccccc3)n2C)n(C)c1=O : 1600
CCCCN(Cc1ccccc1)c1nc2c(c(=O)n(Cc3ccccc3)c(=O)n2C)n1C : 940
CN(Cc1cccc(C(F)(F)F)c1)c1nc2c(c(=O)n(Cc3ccccc3)c(=O)n2C)n1C : 1500
CCCN(Cc1ccccc1)c1nc2c(c(=O)n(Cc3ccccc3)c(=O)n2C)n1C : 1300

Input `Cc1cccc(CN(C)c2nc3c(c(=O)n(Cc4ccccc4)c(=O)n3C)n2C)c1` , output reported IC50.
2000

Input `C[C@H](c1ccccc1)N(C)c1nc2c(c(=O)n(Cc3ccccc3)c(=O)n2C)n1C` , output reported IC50.
1600

Input `Cc1ccc(Cn2c(=O)c3c(nc(N(C)Cc4ccccc4)n3C)n(C)c2=O)cc1` , output reported IC50.
5500

Input `CCN(Cc1ccccc1)c1nc2c(c(=O)n(Cc3ccccc3)c(=O)n2C)n1C` , output reported IC50.
1400

Input `CN(Cc1ccccc1Cl)c1nc2c(c(=O)n(Cc3ccccc3)c(=O)n2C)n1C` , output reported IC50.
3000

Input `Cc1cccc(Cn2c(=O)c3c(nc(N(C)Cc4ccccc4)n3C)n(C)c2=O)c1` , output reported IC50.
1500

Input `CN(Cc1ccccc1)c1nc2c(c(=O)n(Cc3cccc(F)c3)c(=O)n2C)n1C` , output reported IC50.
1600

Input `COc1cccc(Cn2c(=O)c3c(nc(N(Cc4cccc(F)c4)CC4CC4)n3C)n(C)c2=O)c1` , output reported IC50.
1000

Input `Cc1ccccc1CN(C)c1nc2c(c(=O)n(Cc3ccccc3)c(=O)n2C)n1C` , output reported IC50.
9900

Input `CN(Cc1ccccc1)c1nc2c(c(=O)n(Cc3ccc(C#N)cc3)c(=O)n2C)n1C` , output reported IC50.
2400

----------
Target: GIRK 1/2 (Homo sapiens, UniProt P48051+P48549)
Construct: expressed in transfected cells; host or cells: HEK293
Sequence (P48549 1-501): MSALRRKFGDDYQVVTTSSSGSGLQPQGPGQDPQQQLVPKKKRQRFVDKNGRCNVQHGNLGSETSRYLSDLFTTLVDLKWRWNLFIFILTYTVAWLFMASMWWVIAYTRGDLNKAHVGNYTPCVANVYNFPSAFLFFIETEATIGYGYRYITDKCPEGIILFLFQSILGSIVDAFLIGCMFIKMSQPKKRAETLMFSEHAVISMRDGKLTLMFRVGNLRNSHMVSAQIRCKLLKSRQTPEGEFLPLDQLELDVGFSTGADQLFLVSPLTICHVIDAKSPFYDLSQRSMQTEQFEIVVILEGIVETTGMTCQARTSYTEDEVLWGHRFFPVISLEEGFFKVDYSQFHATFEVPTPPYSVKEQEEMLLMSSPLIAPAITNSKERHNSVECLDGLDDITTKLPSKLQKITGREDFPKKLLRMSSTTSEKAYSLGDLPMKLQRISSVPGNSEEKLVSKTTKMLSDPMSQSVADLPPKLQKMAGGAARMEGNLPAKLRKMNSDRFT
Sequence (P48051 1-423): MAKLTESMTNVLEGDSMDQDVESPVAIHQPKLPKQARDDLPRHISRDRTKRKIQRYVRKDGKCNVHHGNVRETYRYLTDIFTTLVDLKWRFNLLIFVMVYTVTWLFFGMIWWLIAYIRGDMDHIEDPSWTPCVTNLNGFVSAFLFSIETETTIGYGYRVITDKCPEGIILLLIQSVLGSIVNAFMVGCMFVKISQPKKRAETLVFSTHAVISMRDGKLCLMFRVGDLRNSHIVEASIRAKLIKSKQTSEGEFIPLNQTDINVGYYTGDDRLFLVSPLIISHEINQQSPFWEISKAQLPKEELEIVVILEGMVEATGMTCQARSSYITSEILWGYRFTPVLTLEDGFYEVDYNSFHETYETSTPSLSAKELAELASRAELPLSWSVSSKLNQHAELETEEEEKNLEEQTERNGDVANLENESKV
Test: Tl+-flux selectivity panel in HEK-293 cells: GIRK 1/2
Format: cell-based
Settings: HEK293, 10 µM test compound, relative to control SCH23390, read-out: Percent Inhibition ± SEM
readoutKind: inhibition at 10 µM (%)
Please reply with the bare figure in % and do not write the unit itself.

Cn1c(N(Cc2ccccc2)CC2CC2)nc2c1c(=O)n(Cc1ccccc1)c(=O)n2C : 12
CN(Cc1cccc(F)c1)c1nc2c(c(=O)n(Cc3ccccc3)c(=O)n2C)n1C : 32
COc1cccc(Cn2c(=O)c3c(nc(N(C)Cc4ccccc4)n3C)n(C)c2=O)c1 : 19

Input `CCCCN(Cc1ccccc1)c1nc2c(c(=O)n(Cc3ccccc3)c(=O)n2C)n1C` , output reported inhibition at 10 µM.
9.2

----------
Entries and their inhibition at 10 µM values follow.
Molecular target: SLICK (Homo sapiens, UniProt Q6UVM3)
Construct: expressed in transfected cells; host or cells: HEK293
Sequence (Q6UVM3 whole entry, species assumed): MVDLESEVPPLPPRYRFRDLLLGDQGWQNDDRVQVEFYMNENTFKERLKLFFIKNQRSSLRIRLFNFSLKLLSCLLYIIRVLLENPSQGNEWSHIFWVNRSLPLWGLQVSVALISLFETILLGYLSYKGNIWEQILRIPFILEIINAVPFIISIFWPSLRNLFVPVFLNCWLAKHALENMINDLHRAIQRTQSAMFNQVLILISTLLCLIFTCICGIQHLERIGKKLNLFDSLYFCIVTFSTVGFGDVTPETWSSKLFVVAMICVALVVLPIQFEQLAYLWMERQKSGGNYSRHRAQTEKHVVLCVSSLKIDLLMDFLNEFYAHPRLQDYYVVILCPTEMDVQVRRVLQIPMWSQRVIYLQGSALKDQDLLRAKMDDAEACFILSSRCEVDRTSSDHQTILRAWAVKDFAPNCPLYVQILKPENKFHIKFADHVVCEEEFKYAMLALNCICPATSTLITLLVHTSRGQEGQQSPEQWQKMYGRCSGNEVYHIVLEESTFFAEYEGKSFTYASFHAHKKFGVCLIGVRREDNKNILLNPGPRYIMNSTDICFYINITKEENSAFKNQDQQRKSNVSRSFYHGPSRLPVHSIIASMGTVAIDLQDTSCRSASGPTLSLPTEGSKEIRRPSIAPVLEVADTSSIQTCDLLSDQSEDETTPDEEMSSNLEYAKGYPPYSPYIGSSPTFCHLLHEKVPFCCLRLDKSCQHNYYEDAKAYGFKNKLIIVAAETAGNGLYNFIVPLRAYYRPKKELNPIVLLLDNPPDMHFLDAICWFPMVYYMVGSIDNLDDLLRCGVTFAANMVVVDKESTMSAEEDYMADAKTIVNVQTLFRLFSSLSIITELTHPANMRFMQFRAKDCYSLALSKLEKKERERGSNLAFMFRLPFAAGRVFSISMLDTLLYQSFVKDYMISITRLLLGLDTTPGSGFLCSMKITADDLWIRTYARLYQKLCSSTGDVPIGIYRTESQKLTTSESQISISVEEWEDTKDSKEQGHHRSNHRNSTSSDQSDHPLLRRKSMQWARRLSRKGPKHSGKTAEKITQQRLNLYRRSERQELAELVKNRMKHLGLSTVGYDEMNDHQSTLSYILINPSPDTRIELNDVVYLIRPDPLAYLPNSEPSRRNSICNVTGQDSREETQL
Assay: Tl+-flux selectivity panel in HEK-293 cells: SLICK
Assay type: cell-based
Conditions: HEK293, 10 µM test compound, relative to control SKF96365, read-out: Percent Inhibition ± SEM

CCCCN(Cc1ccccc1)c1nc2c(c(=O)n(Cc3ccccc3)c(=O)n2C)n1C [Analog 70] : 18%

Input COc1cccc(Cn2c(=O)c3c(nc(N(C)Cc4ccccc4)n3C)n(C)c2=O)c1 [Analog 32] , output reported inhibition at 10 µM.
28%

Input CN(Cc1cccc(F)c1)c1nc2c(c(=O)n(Cc3ccccc3)c(=O)n2C)n1C [Analog 48] , output reported inhibition at 10 µM.
21%

Input Cn1c(N(Cc2ccccc2)CC2CC2)nc2c1c(=O)n(Cc1ccccc1)c(=O)n2C [Analog 71] , output reported inhibition at 10 µM.
17%

----------
Molecular target: TASK-1 (Homo sapiens, UniProt O14649)
Construct: expressed in transfected cells; host or cells: HEK293
Sequence (O14649 whole entry, species assumed): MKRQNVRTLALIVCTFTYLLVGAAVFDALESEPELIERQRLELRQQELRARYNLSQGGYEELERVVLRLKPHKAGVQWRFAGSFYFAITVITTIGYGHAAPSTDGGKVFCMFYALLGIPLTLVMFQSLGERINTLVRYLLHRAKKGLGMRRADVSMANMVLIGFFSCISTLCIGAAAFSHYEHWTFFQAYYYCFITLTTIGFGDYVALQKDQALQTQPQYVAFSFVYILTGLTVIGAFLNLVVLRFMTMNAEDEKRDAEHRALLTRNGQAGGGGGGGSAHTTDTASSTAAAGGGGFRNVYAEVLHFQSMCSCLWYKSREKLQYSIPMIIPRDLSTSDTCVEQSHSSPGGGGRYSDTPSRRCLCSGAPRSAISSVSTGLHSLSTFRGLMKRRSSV
Experiment: Tl+-flux selectivity panel in HEK-293 cells: TASK-1
Type: cell-based
Conditions: HEK293, 10 µM test compound, relative to control bepridil, read-out: Percent Inhibition ± SEM
readoutKind: inhibition at 10 µM

CN(Cc1cccc(F)c1)c1nc2c(c(=O)n(Cc3ccccc3)c(=O)n2C)n1C [Analog 48] : 24%

Input CCCCN(Cc1ccccc1)c1nc2c(c(=O)n(Cc3ccccc3)c(=O)n2C)n1C [Analog 70] , output reported inhibition at 10 µM.
23%

Input Cn1c(N(Cc2ccccc2)CC2CC2)nc2c1c(=O)n(Cc1ccccc1)c(=O)n2C [Analog 71] , output reported inhibition at 10 µM.
4.9%

Input COc1cccc(Cn2c(=O)c3c(nc(N(C)Cc4ccccc4)n3C)n(C)c2=O)c1 [Analog 32] , output reported inhibition at 10 µM.
17%
